Target: human TLR7 (Homo sapiens, UniProt Q9NYK1)
Construct: host or cells: HEK-Blue cells
Sequence (Q9NYK1 27-1049): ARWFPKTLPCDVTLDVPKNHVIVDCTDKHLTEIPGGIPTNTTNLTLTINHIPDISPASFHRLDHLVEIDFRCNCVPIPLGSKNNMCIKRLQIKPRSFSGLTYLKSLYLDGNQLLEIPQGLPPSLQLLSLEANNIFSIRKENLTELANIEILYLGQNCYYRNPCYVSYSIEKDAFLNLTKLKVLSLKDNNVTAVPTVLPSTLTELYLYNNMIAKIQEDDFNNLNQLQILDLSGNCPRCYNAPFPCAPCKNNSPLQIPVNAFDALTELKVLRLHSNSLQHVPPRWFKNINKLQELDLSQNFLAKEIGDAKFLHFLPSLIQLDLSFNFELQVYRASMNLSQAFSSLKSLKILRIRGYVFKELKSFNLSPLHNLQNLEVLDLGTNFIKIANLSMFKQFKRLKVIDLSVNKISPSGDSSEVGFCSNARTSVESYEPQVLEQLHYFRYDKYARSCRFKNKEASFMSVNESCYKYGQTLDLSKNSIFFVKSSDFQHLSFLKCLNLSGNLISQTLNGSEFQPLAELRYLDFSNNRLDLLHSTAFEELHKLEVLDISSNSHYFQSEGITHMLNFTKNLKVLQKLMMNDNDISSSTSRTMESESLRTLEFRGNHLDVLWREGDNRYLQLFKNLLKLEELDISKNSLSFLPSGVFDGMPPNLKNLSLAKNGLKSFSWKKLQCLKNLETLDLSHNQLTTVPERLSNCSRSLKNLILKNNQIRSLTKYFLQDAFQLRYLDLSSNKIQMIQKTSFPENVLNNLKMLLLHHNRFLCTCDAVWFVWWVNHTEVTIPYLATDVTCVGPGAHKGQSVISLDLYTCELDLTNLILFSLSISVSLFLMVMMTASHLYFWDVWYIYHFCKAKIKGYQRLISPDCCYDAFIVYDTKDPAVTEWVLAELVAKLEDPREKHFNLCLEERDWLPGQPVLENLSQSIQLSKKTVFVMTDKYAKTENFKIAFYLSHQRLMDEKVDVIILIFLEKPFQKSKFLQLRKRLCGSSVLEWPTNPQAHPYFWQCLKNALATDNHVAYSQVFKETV
Test: TLR7 inhibition reporter assay (HEK-Blue cells, SEAP reporter, gardiquimod stimulation)
Format: cell-based
Conditions: HEK-Blue cells overexpressing human TLR7, SEAP reporter, gardiquimod 7.5 μM; read-out: TLR7 IC50
metric: IC50 (nM)
Give the number; nM is assumed, so skip it.

The cases that follow already have their IC50 on record.
Cc1c(-c2[nH]c3sc(N4CC5(C4)CN(C4COC4)C5)nc3c2C(C)C)cn2ncnc2c1C = 9.44
Cc1c(-c2[nH]c3sc(C(=O)NCC4CNCCO4)nc3c2C(C)C)cn2ncnc2c1C (stereo not shown) = 10.3
COc1cc(-c2[nH]c3sc(C(=O)NCCN4CCCC4)nc3c2C(C)C)cn2ncnc12 = 25.2
Cc1cc(-c2[nH]c3sc(C(=O)N4CCCOCC4)nc3c2C(C)C)cn2ncnc12 = 154
COc1cc(-c2[nH]c3sc(C4CCC(NC5CCN(C(C)C)CC5)CC4)nc3c2C(C)C)cn2ncnc12 (single isomer, unassigned) [Example 167] = 7.37

Enquiry: Quick check: IC50 of `CC(C)c1c(-c2cn(C)c3ncccc23)[nH]c2sc(C3CCN(CC(=O)N(C)C)CC3)nc12` ?
Return: 4.37

Enquiry: Quick check: IC50 of `Cc1c(-c2[nH]c3sc(N4CCN(CC5CCOCC5)C[C@H]4C)nc3c2C(C)C)cn2ncnc2c1C` ?
Return: 9.47
